These measurements were taken from ChEMBL document CHEMBL1250470.

- TARGET OR TEST SYSTEM: 1,25-dihydroxyvitamin D(3) 24-hydroxylase, mitochondrial (Homo sapiens, UniProt Q07973)
- PROCEDURE TEXT: Inhibition of CYP24A1 expressed in […]
Each entry below carries its reported pIC50.
Scale: negative log10 of molar concentration, which is what pIC50 denotes.

Example cases with answers are listed next.
Query pIC50 on 1,25-dihydroxyvitamin D(3) 24-hydroxylase, mitochondrial (Homo sapiens, UniProt Q07973) for COc1ccc2c(c1)CC/C(=C\c1ccccc1-c1ccccc1)C2=O
3.95

Form field - read-out: pIC50; system: 1,25-dihydroxyvitamin D(3) 24-hydroxylase, mitochondrial (Homo sapiens, UniProt Q07973); submitted item: CCc1ccccc1CC1CCc2cc(OC)ccc2C1=O (configuration not stated)
5.72

Hi! What's the reported pIC50 for COc1ccc2c(c1)CCC(Cc1ccccc1C)C2=O (configuration not stated) on 1,25-dihydroxyvitamin D(3) 24-hydroxylase, mitochondrial (Homo sapiens, UniProt Q07973)?
3.90

Others:
I'm curious: which pIC50 was measured for COc1ccc2c(c1)CC/C(=C\c1ccccc1C)C2=O tested on 1,25-dihydroxyvitamin D(3) 24-hydroxylase, mitochondrial (Homo sapiens, UniProt Q07973)?
3.32

Notebook: pull reported pIC50 for 1,25-dihydroxyvitamin D(3) 24-hydroxylase, mitochondrial (Homo sapiens, UniProt Q07973), entry COc1ccc2c(c1)CC/C(=C\c1ccccc1/C=C/c1ccccc1)C2=O
5.29

What value of pIC50 on 1,25-dihydroxyvitamin D(3) 24-hydroxylase, mitochondrial (Homo sapiens, UniProt Q07973) does COc1ccc2c(c1)CC/C(=C\c1ccccc1C(F)(F)F)C2=O have?
4.95

Form field - read-out: pIC50; system: 1,25-dihydroxyvitamin D(3) 24-hydroxylase, mitochondrial (Homo sapiens, UniProt Q07973); submitted item: CCc1ccccc1/C=C1\CCc2cc(OC)ccc2C1=O
4.97

====

The compounds listed here are annotated with their pIC50.
- TARGET OR TEST SYSTEM: UniProt:Q02318
- Sequence (Q02318 whole entry): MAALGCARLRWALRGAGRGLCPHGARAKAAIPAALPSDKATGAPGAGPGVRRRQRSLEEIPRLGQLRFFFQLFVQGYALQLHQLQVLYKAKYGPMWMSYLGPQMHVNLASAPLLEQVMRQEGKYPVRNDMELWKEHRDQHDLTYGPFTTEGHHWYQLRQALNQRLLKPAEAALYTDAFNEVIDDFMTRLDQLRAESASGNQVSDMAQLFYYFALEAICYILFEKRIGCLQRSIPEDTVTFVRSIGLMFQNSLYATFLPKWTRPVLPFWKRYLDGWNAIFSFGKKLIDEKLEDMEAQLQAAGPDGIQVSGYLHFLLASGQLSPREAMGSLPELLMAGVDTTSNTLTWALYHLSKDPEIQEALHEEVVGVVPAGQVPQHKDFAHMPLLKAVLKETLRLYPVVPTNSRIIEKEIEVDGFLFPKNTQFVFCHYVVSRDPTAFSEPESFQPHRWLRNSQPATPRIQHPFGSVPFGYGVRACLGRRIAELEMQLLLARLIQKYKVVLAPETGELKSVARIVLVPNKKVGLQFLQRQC
- PROCEDURE TEXT: Inhibition of CYP27A1 expressed in […]
// returns pIC50 (minus log10 of molar concentration), number only

Entry COc1ccc2c(c1)CCC(Cc1ccccc1C(F)(F)F)C2=O (stereo not given) : reported pIC50 = ?
5.27

More entries:
For the compound shown here, COc1ccc2c(c1)CC/C(=C\c1ccccc1/C=C/c1ccccc1)C2=O , give the reported pIC50.
5.24

Please report the recorded pIC50 for COc1ccc2c(c1)CC/C(=C\c1ccccc1Br)C2=O .
5.36

Sample CCc1ccccc1CC1CCc2cc(OC)ccc2C1=O (stereo not given) — what was its pIC50?
5.08

GET /values?readout=pIC50&item= COc1ccc2c(c1)CCC(Cc1ccccc1Br)C2=O (stereo not given)
7.23

====

log10(IC50) reference
- TARGET OR TEST SYSTEM: 1,25-dihydroxyvitamin D(3) 24-hydroxylase, mitochondrial (Homo sapiens)
- Sequence (Q07973 whole entry): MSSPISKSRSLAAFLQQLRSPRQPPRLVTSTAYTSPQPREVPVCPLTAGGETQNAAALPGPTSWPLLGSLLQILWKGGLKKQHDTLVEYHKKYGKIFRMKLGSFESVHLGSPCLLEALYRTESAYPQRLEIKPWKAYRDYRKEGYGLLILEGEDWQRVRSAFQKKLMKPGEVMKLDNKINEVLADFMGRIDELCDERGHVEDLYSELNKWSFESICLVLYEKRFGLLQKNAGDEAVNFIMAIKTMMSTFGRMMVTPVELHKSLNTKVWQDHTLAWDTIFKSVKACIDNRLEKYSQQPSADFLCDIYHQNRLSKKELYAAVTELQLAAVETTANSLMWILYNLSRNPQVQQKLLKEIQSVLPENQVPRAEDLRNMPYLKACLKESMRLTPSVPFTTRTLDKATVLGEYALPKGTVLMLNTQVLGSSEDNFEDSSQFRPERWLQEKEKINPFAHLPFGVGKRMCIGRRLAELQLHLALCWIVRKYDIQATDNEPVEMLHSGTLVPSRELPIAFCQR
- PROCEDURE TEXT: Inhibition of CYP24A1 expressed in […]
Heads up, the numbers here are log10 of IC50 in µM units.

Request the reported log10(IC50) associated with COc1ccc2c(c1)CC/C(=C\c1ccccc1Br)C2=O
2.09

Continuing:
Can you share its log10(IC50)? I mean this molecule: COc1ccc2c(c1)CCC(Cc1ccccc1CCc1ccccc1)C2=O (stereo unspecified)
1.41

Item under review: COc1ccc2c(c1)CCC(Cc1ccccc1-c1ccccc1)C2=O (stereo unspecified) . Reported log10(IC50)?
2.11

So what's the measured log10(IC50) for this one? COc1ccc2c(c1)CCC(Cc1ccccc1Br)C2=O (stereo unspecified)
1.21

May I ask what log10(IC50) has been recorded for COc1ccc2c(c1)CCC(Cc1ccccc1C(F)(F)F)C2=O (stereo unspecified) ?
0.32

Given COc1ccc2c(c1)CCC(Cc1ccccc1/C=C/c1ccccc1)C2=O (stereo unspecified) , state its recorded log10(IC50).
2.54
